Cited source: patent US9725414B2

- ASSAY_COMMENT: log P by HPLC on reversed-phase column (C 18), EEC Directive 79831 Annex V.A8
- Type: physicochemical
- PROTOCOL_CONDITIONS: HPLC reversed-phase C 18, 40° C., 0.1% aqueous formic acid and acetonitrile gradient; several values = mixture of two or more isomers
ASSAY_ENDPOINT: logP

Completed entries (count: 5):
>  <COMPOUND>
Cn1nc(C(F)F)c(C(=O)NC2CC3CCC2C3)c1F (stereo not shown)

>  <logP>
2.46

$$$$
>  <COMPOUND>
Cn1nc(C(F)F)c(C(=O)NC2CCC3CCCC32)c1Cl (stereo not shown)

>  <logP>
3.09

$$$$
>  <COMPOUND>
Cn1nc(C(F)F)c(C(=O)N(CC2CCC3CCCC3C2)C2CC2)c1Cl (stereo not shown)

>  <logP>
4.59

$$$$
>  <COMPOUND>
Cn1cc(C(=O)NC2CC3CCC2C3)c(C(F)F)n1 (stereo not shown)

>  <logP>
2.14

$$$$
>  <COMPOUND>
Cn1nc(C(F)F)c(C(=O)NC2CC3CCC2C3)c1Cl (stereo not shown)

>  <logP>
2.64

$$$$

Identify logP associated with the compound CC(N(C(=O)c1cn(C)nc1C(F)F)C1CC1)C12CC3CC(CC(C3)C1)C2 (stereo not shown)
4.30

Identify logP associated with the compound Cn1cc(C(=O)N(CC2CCC3CCCC32)C2CC2)c(C(F)F)n1 (stereo not shown)
3.50

Identify logP associated with the compound CC1C(NC(=O)c2c(C(F)F)nn(C)c2Cl)CC2CC1C2(C)C (stereo not shown)
3.79

Identify logP associated with the compound `Cn1nc(C(F)F)c(C(=O)NCC23CC4CC(CC(C4)C2)C3)c1F`
3.67

Identify logP associated with the compound CC1C(CN(C(=O)c2cn(C)nc2C(F)F)C2CC2)CC2CC1C2(C)C (stereo not shown)
4.21

Identify logP associated with the compound CCc1nn(C)c(F)c1C(=O)N(C1CC1)C(C)C12CC3CC(CC(C3)C1)C2 (stereo not shown)
4.86

Identify logP associated with the compound CON(C(=O)c1cn(C)nc1C(F)F)C(C)C1CC2CCC1C2 (stereo not shown)
3.42

Identify logP associated with the compound Cn1nc(C(F)F)c(C(=O)N(CC2(Cc3ccccc3)CC3CCC2C3)C2CC2)c1Cl (stereo not shown)
5.06
